Biological target: T1, alpha-s1 casein from Bos taurus
T1 chain: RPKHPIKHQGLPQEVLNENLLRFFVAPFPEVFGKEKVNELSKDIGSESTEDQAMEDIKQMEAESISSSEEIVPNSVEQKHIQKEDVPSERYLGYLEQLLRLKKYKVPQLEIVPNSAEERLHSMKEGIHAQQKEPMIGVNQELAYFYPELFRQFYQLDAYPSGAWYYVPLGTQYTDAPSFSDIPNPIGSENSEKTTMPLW
Assay endpoint: αs1 CN, 6 hours, 11° C. (Volume)
Give the value, in units of Volume, as a plain number.

{"Protein": "camel chymosin variant #163 (L295T) (protein) GKVAREPLTSYLDSQYFGKIYIGTPPQEFTVVFDTGSSDLWVPSIYCKSNVCKNHHRFDPRKSSTFRNLGKPLSIHYGTGSMEGFLGYDTVTVSNIVDPNQTVGLSTEQPGEVFTYSEFDGILGLAYPSLASEYSVPVFDNMMDRHLVARDLFSVYMDRNGQGSMLTLGAIDPSYYTGSLHWVPVTLQQYWQFTVDSVTINGVAVACVGGCQAILDTGTSVLFGPSSDILKIQMAIGATENRYGEFDVNCGNLRSMPTVVFEINGRDYPLSPSAYTSKDQGFCTSGFQGDNNSETWILGDVFIREYYSVFDRANNRVGLAKAI", "αs1 CN, 6 hours, 11° C. [Volume]": "2.79e+07"}
{"Protein": "camel chymosin variant #143 (F223V) (protein) GKVAREPLTSYLDSQYFGKIYIGTPPQEFTVVFDTGSSDLWVPSIYCKSNVCKNHHRFDPRKSSTFRNLGKPLSIHYGTGSMEGFLGYDTVTVSNIVDPNQTVGLSTEQPGEVFTYSEFDGILGLAYPSLASEYSVPVFDNMMDRHLVARDLFSVYMDRNGQGSMLTLGAIDPSYYTGSLHWVPVTLQQYWQFTVDSVTINGVAVACVGGCQAILDTGTSVLVGPSSDILKIQMAIGATENRYGEFDVNCGNLRSMPTVVFEINGRDYPLSPSAYTSKDQGFCTSGFQGDNNSELWILGDVFIREYYSVFDRANNRVGLAKAI", "αs1 CN, 6 hours, 11° C. [Volume]": "2.36e+07"}
{"Protein": "camel chymosin variant #162 (L295R) (protein) GKVAREPLTSYLDSQYFGKIYIGTPPQEFTVVFDTGSSDLWVPSIYCKSNVCKNHHRFDPRKSSTFRNLGKPLSIHYGTGSMEGFLGYDTVTVSNIVDPNQTVGLSTEQPGEVFTYSEFDGILGLAYPSLASEYSVPVFDNMMDRHLVARDLFSVYMDRNGQGSMLTLGAIDPSYYTGSLHWVPVTLQQYWQFTVDSVTINGVAVACVGGCQAILDTGTSVLFGPSSDILKIQMAIGATENRYGEFDVNCGNLRSMPTVVFEINGRDYPLSPSAYTSKDQGFCTSGFQGDNNSERWILGDVFIREYYSVFDRANNRVGLAKAI", "αs1 CN, 6 hours, 11° C. [Volume]": "3.09e+07"}

Turning now to a further record.
Asked: Give αs1 CN, 6 hours, 11° C. for bovine chymosin B variant #7 (K221V) (protein) GEVASVPLTNYLDSQYFGKIYLGTPPQEFTVLFDTGSSDFWVPSIYCKSNACKNHQRFDPRKSSTFQNLGKPLSIHYGTGSMQGILGYDTVTVSNIVDIQQTVGLSTQEPGDVFTYAEFDGILGMAYPSLASEYSIPVFDNMMNRHLVAQDLFSVYMDRNGQESMLTLGAIDPSYYTGSLHWVPVTVQQYWQFTVDSVTISGVVVACEGGCQAILDTGTSVLVGPSSDILNIQQAIGATQNQYGEFDIDCDNLSYMPTVVFEINGKMYPLTPSAYTSQDQGFCTSGFQSENHSQKWILGDVFIREYYSVFDRANNLVGLAKAI
Given back: 1.07e+07
